Tested on: Jurkat (human leukaemic T cell lymphoma)
PROTOCOL DESCRIPTION: MTS antiproliferative assay
PARAMETER MEASURED: IC50 (µM)

>>> result_value("O.O.O.O.O.O.O=C([O-])c1cc(O)cc(C(=O)[O-])n1.O=C([O-])c1cc(O)cc(C(=O)[O-])n1.[Ga+3].[Ga+3].[OH-].[OH-] [GaChel, [Ga(Chel)(H2O)(OH)]2·4H2O]")
418
>>> result_value("O.O=C([O-])c1cccc(C(=O)[O-])n1.O=C([O-])c1cccc(C(=O)[O-])n1.[Ga+3].[OH3+] [GaDpic, H3O[Ga(Dpic)2]·H2O]")
325
>>> result_value("O.O.O=C([O-])c1cc(Cl)cc(C(=O)[O-])n1.O=C([O-])c1cc(Cl)cc(C(=O)[O-])n1.[Ga+3].[Ga+3].[OH-].[OH-] [GaCldpic, [Ga(Cldpic)(H2O)(OH)]2]")
405
>>> result_value("O.O=C([O-])c1ccccn1.O=C([O-])c1ccccn1.O=C([O-])c1ccccn1.[Ga+3] [GaPic, [Ga(Pic)3]·H2O]")
175

====

PROTOCOL DESCRIPTION: in vitro
CONDITION DETAILS: human
PARAMETER MEASURED: IC50 at 72 h

>>> result_value("O=C(O)c1cc(O)cc(C(=O)O)n1 [H2Chel, chelidamic acid]")
"> 200 µM"
>>> result_value("O=C(O)c1cccc(C(=O)O)n1 [H2Dpic, dipicolinic acid]")
"> 200 µM"

====

PROTOCOL DESCRIPTION: Complex stability in biological testing medium by time-dependent 1H NMR
Type: physicochemical
CONDITION DETAILS: 300 K, over 96 h
PARAMETER MEASURED: stability in 1% DMSO-d6/D2O solution

>>> result_value("O.O.O.O.O.O.O=C([O-])c1cc(O)cc(C(=O)[O-])n1.O=C([O-])c1cc(O)cc(C(=O)[O-])n1.[Ga+3].[Ga+3].[OH-].[OH-] [GaChel, [Ga(Chel)(H2O)(OH)]2·4H2O]")
"stable"
>>> result_value("O.O=C([O-])c1cccc(C(=O)[O-])n1.O=C([O-])c1cccc(C(=O)[O-])n1.[Ga+3].[OH3+] [GaDpic, H3O[Ga(Dpic)2]·H2O]")
"stable"
>>> result_value("O.O.O=C([O-])c1cc(Cl)cc(C(=O)[O-])n1.O=C([O-])c1cc(Cl)cc(C(=O)[O-])n1.[Ga+3].[Ga+3].[OH-].[OH-] [GaCldpic, [Ga(Cldpic)(H2O)(OH)]2]")
"stable"

====

Tested on: Pseudomonas aeruginosa (P. aeruginosa) CCM 1959
PROTOCOL DESCRIPTION: Antimicrobial activity, macrodilution method (growth by A590)
Format: cell-based
CONDITION DETAILS: Pseudomonas aeruginosa, CCM1959; Bacteria; MHB, 37 °C; DMSO max 1.0 vol. %; read-out: IC50 P. aeruginosa
PARAMETER MEASURED: IC50

>>> result_value("O=C(O)c1cc(O)cc(C(=O)O)n1")
"> 500 µM"
>>> result_value("O=C(O)c1ccccn1")
"> 500 µM"
>>> result_value("O=C(O)c1cc(Cl)cc(C(=O)O)n1")
"> 500 µM"
